target: Tyrosine-protein kinase BTK (Homo sapiens) (UniProt Q06187); settings: at 10 µM
Sequence (Q06187 whole entry): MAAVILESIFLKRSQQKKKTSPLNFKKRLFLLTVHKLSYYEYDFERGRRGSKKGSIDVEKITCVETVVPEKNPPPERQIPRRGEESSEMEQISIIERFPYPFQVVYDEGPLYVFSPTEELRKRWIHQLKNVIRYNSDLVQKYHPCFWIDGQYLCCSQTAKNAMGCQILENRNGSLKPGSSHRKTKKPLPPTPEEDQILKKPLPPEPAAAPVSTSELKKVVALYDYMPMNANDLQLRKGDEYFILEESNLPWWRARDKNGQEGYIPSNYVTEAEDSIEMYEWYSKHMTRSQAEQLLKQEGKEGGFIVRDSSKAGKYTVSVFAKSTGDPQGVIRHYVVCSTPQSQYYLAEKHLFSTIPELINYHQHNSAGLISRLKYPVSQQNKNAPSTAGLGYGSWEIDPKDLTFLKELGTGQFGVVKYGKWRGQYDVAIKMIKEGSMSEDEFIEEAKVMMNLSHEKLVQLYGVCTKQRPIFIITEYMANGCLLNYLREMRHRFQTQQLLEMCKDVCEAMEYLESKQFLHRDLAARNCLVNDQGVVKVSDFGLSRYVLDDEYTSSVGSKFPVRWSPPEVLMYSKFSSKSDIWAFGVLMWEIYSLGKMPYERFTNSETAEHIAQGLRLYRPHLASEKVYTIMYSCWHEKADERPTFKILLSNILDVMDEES
READOUT_KIND: residual activity (%)
Express it in %; write the number only.

Task: Note down residual activity recorded for "COc1ccc(S(=O)(=O)N(CCO)c2ccccc2CN(C)C/C=C/c2ccc(Cl)cc2)cc1"
Result: 93

Task: Look up and state reported residual activity for "Ic1cccc(CSc2nnc(-c3ccncc3)o2)c1"
Result: 95

Task: Give residual activity for "CC[n+]1c(/C=C/N(C)c2ccccc2)n(-c2ccccc2)c2ccc(-c3nc4ccccc4s3)cc21"
Result: 58

Task: Please indicate residual activity recorded for "O=C(Nc1cccc(Nc2cc(Nc3cccc(C(F)(F)F)c3)ncn2)c1)C1CC1"
Result: 71

Task: Hello, please tell me recorded residual activity for this one: "Cc1ccc(NC2=CC(=O)c3sc(C)nc3C2=O)cc1"
Result: 86

Task: Specify measured residual activity for "Oc1ccc(-c2nc(-c3ccc(F)cc3)c(-c3ccncc3)[nH]2)cc1" .
Result: 77

Task: Look up and report measured residual activity for this entry: "CN(C)CCCn1cc(C2=C(c3c[nH]c4ccccc34)C(=O)NC2=O)c2ccccc21"
Result: 72

Task: Retrieve residual activity measured for "Oc1c2ccccc2c2c3c(cccc13)N=N2" and print it.
Result: 57

Task: Identify the reported residual activity for the following entry. "O=C(Nc1cccc(Nc2nccc(Nc3cccc(C(F)(F)F)c3)n2)c1)C1CC1"
Result: 6

Task: Quickly give me recorded residual activity for "c1ccc(-c2n[nH]cc2-c2ccnc3ccccc23)nc1"
Result: 100

Task: Provide only the value of recorded residual activity for "CC(C)n1cnc2c(NCc3ccccc3)nc(NCCCO)nc21"
Result: 94

---

target: Cyclin-dependent kinase 5/CDK5 activator 1 (Homo sapiens) (UniProt Q00535+Q15078); conditions: at 1 µM
Sequence (Q00535 whole entry): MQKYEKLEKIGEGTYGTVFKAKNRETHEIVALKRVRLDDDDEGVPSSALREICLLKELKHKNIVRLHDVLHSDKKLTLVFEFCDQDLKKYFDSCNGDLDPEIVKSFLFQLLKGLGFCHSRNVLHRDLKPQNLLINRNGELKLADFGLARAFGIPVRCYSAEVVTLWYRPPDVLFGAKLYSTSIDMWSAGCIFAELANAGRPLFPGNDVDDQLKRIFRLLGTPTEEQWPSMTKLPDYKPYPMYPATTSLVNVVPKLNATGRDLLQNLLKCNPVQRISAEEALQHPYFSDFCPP
Sequence (Q15078 99-307 partner limits assumed): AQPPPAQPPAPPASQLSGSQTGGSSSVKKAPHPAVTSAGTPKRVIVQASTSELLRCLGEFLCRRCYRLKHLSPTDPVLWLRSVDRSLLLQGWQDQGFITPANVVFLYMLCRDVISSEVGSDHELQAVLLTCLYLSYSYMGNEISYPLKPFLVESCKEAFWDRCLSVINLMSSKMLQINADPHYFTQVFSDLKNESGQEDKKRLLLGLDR
Binary label based on residual activity with cut-off 90%: below gives Met, not below gives Not met.

Task: # strict comparison: is reported residual activity < 90%? input = "Oc1ccc(Nc2nc(-c3ccc(Cl)cc3)cs2)cc1"
Result: Not met

Task: # check: residual activity < 90% for "O=C(Nc1cccc(Nc2nccc(Nc3cccc(C(F)(F)F)c3)n2)c1)C1CC1"
Result: Not met

Task: Criterion: residual activity strictly below 90%. Is it met by "O=C1Nc2cc(Br)ccc2/C1=C1/Nc2ccccc2/C1=N\O" ?
Result: Met

Task: Identify whether the compound "COc1ccc(OC)c2c(=S)c3ccccc3[nH]c12" records residual activity below 90%.
Result: Not met

Task: Please check: residual activity for "CCN(CC)CCCCN1c2ccccc2Oc2ccc(Cl)cc21" , strictly under 90% or not?
Result: Not met

Task: Please indicate whether the reported residual activity of "O=C(O)c1ccc2c3c1cccc3c(=O)n1c3ccccc3nc21" is strictly below 90%.
Result: Met

---

Task for the reader: assign each of the following molecules its reported residual activity.
target: Mast/stem cell growth factor receptor Kit (Homo sapiens); settings: at 1 µM
Return type: number; implicit unit %.

Task: // output residual activity; input "Nc1n[nH]c2nnc(-c3c(-c4ccccc4)nn4ccccc34)cc12" ; system Mast/stem cell growth factor receptor Kit (Homo sapiens)
Result: 95

Task: Please report the measured residual activity for "Oc1ccc(Nc2nc(-c3ccc(Cl)cc3)cs2)cc1" tested on Mast/stem cell growth factor receptor Kit (Homo sapiens).
Result: 110

Task: Look up and report residual activity, with Mast/stem cell growth factor receptor Kit (Homo sapiens) as system, for "COc1cc2ncnc(Nc3ccc(O)c(Br)c3)c2cc1OC"
Result: 102

Task: Look up and report residual activity, with Mast/stem cell growth factor receptor Kit (Homo sapiens) as system, for "O=C(Nc1cccc(Nc2nccc(Nc3cccc(C(F)(F)F)c3)n2)c1)C1CC1"
Result: 94

Task: Write down measured residual activity (Mast/stem cell growth factor receptor Kit (Homo sapiens)) for this molecule. "O=C(O)c1ccc2c3c1cccc3c(=O)n1c3ccccc3nc21"
Result: 122

Task: Please respond with reported residual activity (system Mast/stem cell growth factor receptor Kit (Homo sapiens)) for "Nc1ccc2ncnc(NCCc3ccc(Oc4ccccc4)cc3)c2c1" .
Result: 114

Task: Quote Mast/stem cell growth factor receptor Kit (Homo sapiens) residual activity for entry "CCOc1cc2ncnc(Nc3cccc(Br)c3)c2cc1OCC" .
Result: 108

Task: Recall the reported residual activity of "Nc1cccc(-c2cc3c(Oc4cccc(O)c4)ncnc3[nH]2)c1" on Mast/stem cell growth factor receptor Kit (Homo sapiens) and write it down.
Result: 20

Task: State the measured residual activity (Mast/stem cell growth factor receptor Kit (Homo sapiens)) of "c1ccc2c(-c3ccncc3)c[nH]c2c1"
Result: 110

Task: Provide Mast/stem cell growth factor receptor Kit (Homo sapiens) residual activity reading for "COc1ccc(CNc2nc(N(CCO)CCO)nc3c2ncn3C(C)C)cc1" .
Result: 91

Task: // output residual activity; input O=C1Nc2ccccc2/C1=C1/Nc2ccccc2/C1=N\OCCC(O)CO (stereo not given) ; system Mast/stem cell growth factor receptor Kit (Homo sapiens)
Result: 10

Task: Please report the measured residual activity for "COc1cccc(-c2cc(=O)c3ccccc3o2)c1N" tested on Mast/stem cell growth factor receptor Kit (Homo sapiens).
Result: 114

Task: Give Mast/stem cell growth factor receptor Kit (Homo sapiens) residual activity for the following molecule: "Cn1cnc2cc3c(Nc4cccc(Br)c4)ncnc3cc21"
Result: 114

Task: Report value only: residual activity, Mast/stem cell growth factor receptor Kit (Homo sapiens), "O=[N+]([O-])c1ccc(-c2nc(-c3ccc(F)cc3)c(-c3ccncc3)[nH]2)cc1"
Result: 123

Task: Report value: residual activity, system: Mast/stem cell growth factor receptor Kit (Homo sapiens), molecule: "Ic1cccc(CSc2nnc(-c3ccncc3)o2)c1"
Result: 97

Task: Under Mast/stem cell growth factor receptor Kit (Homo sapiens), report residual activity for "CO[C@@H]1[C@H](N(C)C(=O)c2ccccc2)C[C@H]2O[C@]1(C)n1c3ccccc3c3c4c(c5c6ccccc6n2c5c31)C(=O)NC4"
Result: 65

Task: Specify the recorded residual activity for "O=c1cc(-c2cccc3c2Sc2ccccc2S3)oc(N2CCOCC2)c1" , system: Mast/stem cell growth factor receptor Kit (Homo sapiens).
Result: 99

Task: Look up Mast/stem cell growth factor receptor Kit (Homo sapiens) data: residual activity of "O=C1Nc2ccc(Br)cc2/C1=C\c1cc2c([nH]1)CCCC2" , then report it.
Result: 66

Task: Fetch value of residual activity on Mast/stem cell growth factor receptor Kit (Homo sapiens) for "CC(=O)O/N=C1\C(=C2\C(=O)Nc3cc(Br)ccc32)Nc2ccccc21" .
Result: 97

Task: Give residual activity for this entry on Mast/stem cell growth factor receptor Kit (Homo sapiens): "O=C1NC(=O)/C(=C\c2ccc3nccnc3c2)S1"
Result: 106

Task: Report residual activity on Mast/stem cell growth factor receptor Kit (Homo sapiens) for this entry: "COc1ccc(OC)c2c(=S)c3ccccc3[nH]c12"
Result: 93

Task: Enter recorded residual activity with Mast/stem cell growth factor receptor Kit (Homo sapiens) for "Cc1nc(-c2ccccc2)c(-c2ccncc2)o1" here.
Result: 124

Task: GET residual activity where system = Mast/stem cell growth factor receptor Kit (Homo sapiens) and item = "Cn1cc(/C=C2\C(=O)Nc3ccc(S(N)(=O)=O)cc32)c2ccccc21"
Result: 69

Task: Lab note: record residual activity of "c1ccc(-c2n[nH]cc2-c2ccnc3ccccc23)nc1" tested on Mast/stem cell growth factor receptor Kit (Homo sapiens).
Result: 101

Task: Give Mast/stem cell growth factor receptor Kit (Homo sapiens) residual activity for the following molecule: "O=C1Nc2cc(Br)ccc2/C1=C1/Nc2ccccc2/C1=N\O"
Result: 18

Task: System Mast/stem cell growth factor receptor Kit (Homo sapiens). Read-out residual activity. Item "O=C1NC(=O)c2c1c1c3ccccc3[nH]c1c1[nH]c3cc(Br)ccc3c21" . Report value.
Result: 107

Task: Fill: residual activity (Mast/stem cell growth factor receptor Kit (Homo sapiens)) for this molecule "c1ccc(-c2n[nH]c3c2oc2ccccc23)cc1"
Result: 16

Task: Find residual activity for "CC[n+]1c(/C=C/N(C)c2ccccc2)n(-c2ccccc2)c2ccc(-c3nc4ccccc4s3)cc21" on Mast/stem cell growth factor receptor Kit (Homo sapiens) and write it down.
Result: 123

Task: Return reported residual activity for target or system Mast/stem cell growth factor receptor Kit (Homo sapiens), item "Oc1ccc(-c2nc(-c3ccc(F)cc3)c(-c3ccncc3)[nH]2)cc1" .
Result: 122

Task: Fill in: residual activity on Mast/stem cell growth factor receptor Kit (Homo sapiens), entry "NC(=O)c1ccc2[nH]c(-c3ccc(Oc4ccc(Cl)cc4)cc3)nc2c1"
Result: 106

Task: // fetch residual activity; item: "O=c1c2ccccc2[nH]c(=S)n1CCN1CCC(=C(c2ccc(F)cc2)c2ccc(F)cc2)CC1" ; system: Mast/stem cell growth factor receptor Kit (Homo sapiens)
Result: 106

Task: System Mast/stem cell growth factor receptor Kit (Homo sapiens). Read-out residual activity. Item "Cc1cc(Nc2nc(-c3ccccc3)nc3ccccc23)n[nH]1" . Report value.
Result: 23

Task: Using Mast/stem cell growth factor receptor Kit (Homo sapiens) as the test system, report measured residual activity of "CCN(CC)C(=O)c1ccc(Nc2nc(OCC3CCCCC3)c3nc[nH]c3n2)cc1" .
Result: 33

Task: Specify the recorded residual activity for "O=C(Nc1cccc(Nc2cc(Nc3cccc(C(F)(F)F)c3)ncn2)c1)C1CC1" , system: Mast/stem cell growth factor receptor Kit (Homo sapiens).
Result: 106

Task: State recorded residual activity with Mast/stem cell growth factor receptor Kit (Homo sapiens), entry "Cc1ccc(S(=O)(=O)/C=C/C#N)cc1" , no comment.
Result: 100

Task: For Mast/stem cell growth factor receptor Kit (Homo sapiens), give the measured residual activity of the entry "Cn1nc2c3c(cccc31)C(=O)c1ccccc1-2"
Result: 104

Task: State recorded residual activity with Mast/stem cell growth factor receptor Kit (Homo sapiens), entry "CCN(CC)CCCCN1c2ccccc2Oc2ccc(Cl)cc21" , no comment.
Result: 121

Task: State measured residual activity of the molecule "CN(C)c1ccc(/C=C2\C(=O)Nc3ccccc32)cc1" with Mast/stem cell growth factor receptor Kit (Homo sapiens).
Result: 24

Task: Name the recorded residual activity of "N#C/C(=C(\N)Sc1ccc(N)cc1)c1ccccc1C(F)(F)F" , assay system Mast/stem cell growth factor receptor Kit (Homo sapiens).
Result: 115

Task: Answer briefly: residual activity recorded on Mast/stem cell growth factor receptor Kit (Homo sapiens) for "C[C@@H](N)[C@H]1CC[C@H](C(=O)Nc2ccncc2)CC1"
Result: 107
